Listed below: pIC50 values for each entry.
- assaySystem: myeloperoxidase (Homo sapiens, UniProt P05164)
- Sequence (P05164 49-745): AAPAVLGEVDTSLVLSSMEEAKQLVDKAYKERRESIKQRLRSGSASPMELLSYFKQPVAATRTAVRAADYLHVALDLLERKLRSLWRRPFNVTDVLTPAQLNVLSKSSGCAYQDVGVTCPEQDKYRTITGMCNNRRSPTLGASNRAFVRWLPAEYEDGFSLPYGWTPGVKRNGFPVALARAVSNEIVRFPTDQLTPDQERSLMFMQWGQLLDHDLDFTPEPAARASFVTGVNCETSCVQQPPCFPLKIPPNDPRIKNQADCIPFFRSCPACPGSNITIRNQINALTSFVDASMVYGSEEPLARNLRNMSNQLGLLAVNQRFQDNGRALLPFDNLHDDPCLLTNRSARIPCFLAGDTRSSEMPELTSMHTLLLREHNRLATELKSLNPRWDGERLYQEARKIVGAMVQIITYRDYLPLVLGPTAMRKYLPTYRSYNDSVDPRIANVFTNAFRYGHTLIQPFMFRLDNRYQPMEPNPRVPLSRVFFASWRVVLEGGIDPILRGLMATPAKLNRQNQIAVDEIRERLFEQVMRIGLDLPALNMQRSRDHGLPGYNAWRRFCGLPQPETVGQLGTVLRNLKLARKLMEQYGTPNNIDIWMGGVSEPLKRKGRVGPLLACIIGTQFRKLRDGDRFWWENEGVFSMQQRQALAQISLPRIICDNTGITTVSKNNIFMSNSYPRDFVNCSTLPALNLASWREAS
- testName: MPO Chlorination Assay (APF Assay)
- Type: biochemical
- runParameters: potency range class, read-out: APF Assay IC50 value
pIC50: −log10 of the molar value.

Nc1cc(C(CCNC23CCC(c4ccccc4)(CC2)CC3O)c2ccccc2)c2nn[nH]c2n1 (centres unmarked) [Example 152] : 7.00 to 9.00
Nc1cc(C(CCNCC2CC2c2ccc(F)cc2)c2ccccc2)c2nn[nH]c2n1 (centres unmarked) [Example 176] : 7.00 to 9.00
Nc1cc(C(CCNC2CC[C@H](c3ccccc3)[C@@H](O)C2)c2ccccc2)c2nn[nH]c2n1 (some centres unmarked) [Example 150] : 7.00 to 9.00

query: Item under review: Nc1cc([C@H](Cc2nc3c(-c4ccc(Cl)cc4)cccc3[nH]2)c2ccccc2)c2nn[nH]c2n1 [Example 253] . Reported pIC50?
result: 7.00 to 9.00

query: Repeat for the following compound: Nc1cc(C(CCNCC2CCCCC2)c2ccccc2)c2nn[nH]c2n1 (centres unmarked) [Example 23]
result: 6.00 to 7.00

query: Repeat for the following compound: Nc1cc(C(CCNC23CCC(c4ccccc4)(CC2)C(O)C3)c2ccccc2)c2nn[nH]c2n1 (centres unmarked) [Example 145]
result: 7.00 to 9.00

query: Repeat for the following compound: Nc1cc(C(CCOC2CCc3ccccc32)c2ccccc2)c2nn[nH]c2n1 (single isomer, unassigned) [Example 231]
result: 6.00 to 7.00

query: Repeat for the following compound: Nc1cc(C(CCN[C@H]2CC[C@@H](c3ccncc3)CC2)c2ccccc2)c2nn[nH]c2n1 (some centres unmarked) [Example 141]
result: 6.00 to 7.00
